biological target: glucocorticoid receptor (GR) recombinant ligand binding domain (LBD) (Homo sapiens (Human)); assay: GR binding fluorescence polarisation (FP) assay; conditions: displacement of fluorescently tagged ligand
IC50 strictly under 20 nM means y; at 20 nM or over means n.

Consider the worked cases shown below.
| molecule | cat |
| --- | --- |
| Cc1cc2c(cnn2-c2ccc(F)cc2)cc1N1CCC(N(C)S(C)(=O)=O)CC1 | n |
| Cc1cc2c(cnn2-c2ccc(F)cc2)cc1C1(Cc2ccccc2)CCN(S(=O)(=O)C2CC2)C1 (centres unmarked) | y |
| Cc1cc2c(cnn2-c2ccn(C)n2)cc1C1(Cc2ccccc2)CCN(S(=O)(=O)c2cnn(C)n2)C1 (centres unmarked) | n |

Quick check: IC50 of CCCn1cc(S(=O)(=O)N2CCC(c3ccc4c(cnn4-c4ccc(F)cc4)c3)C[C@H]2C)cn1 (some centres unmarked) under 20 nM?
n

Also Cc1ncc(S(=O)(=O)N2CCC(Cc3ccccc3)(c3cc4cnn(-c5ccc(=O)n(C)c5)c4cc3C)C2)cn1 (centres unmarked) ?
n

====

biological target: glucocorticoid receptor (GR) recombinant ligand binding domain (LBD) (Homo sapiens (Human), UniProt P04150); experiment: GR binding fluorescence polarisation (FP) assay; details: displacement of fluorescently tagged ligand
Sequence (P04150 524-758): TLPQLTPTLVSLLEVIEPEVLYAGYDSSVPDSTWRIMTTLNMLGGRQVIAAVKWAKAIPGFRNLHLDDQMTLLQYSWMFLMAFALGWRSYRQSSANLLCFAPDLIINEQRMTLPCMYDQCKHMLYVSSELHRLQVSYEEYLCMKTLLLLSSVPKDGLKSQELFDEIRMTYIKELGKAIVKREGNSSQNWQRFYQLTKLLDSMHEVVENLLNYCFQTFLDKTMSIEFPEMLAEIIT
observable: pIC50
Numbers only, as −log10 of the molar value.

For each entry beneath this line, provide reported pIC50.
1. Cc1cc2c(cnn2-c2cc(Cl)c(=O)n(C)c2)cc1C1(Cc2ccccc2)CCN(S(=O)(=O)c2cnn(C)n2)C1 (stereo not shown)
2. CS(=O)(=O)N[C@H]1CCN(c2ccc3c(cnn3-c3ccc(F)cc3)c2)C1
3. CCCn1cc(S(=O)(=O)N2CC=C(c3cc4cnn(-c5ccc(F)cc5)c4cc3C(C)C)CC2)cn1
4. Cc1cc2c(cnn2-c2ccc(F)cc2)cc1C1(Cc2ccccc2)CCN(C)C1 (stereo not shown)
5. CCCn1cc(S(=O)(=O)N2CCC(CC)(c3cc4cnn(-c5ccc(F)cc5)c4cc3C)C2)cn1 (stereo not shown)
6. Cc1cc2c(cnn2-c2ccc(F)cc2)cc1N1CCC(C)(NS(C)(=O)=O)CC1
7. Cc1cc2c(cnn2-c2ccc(F)cc2)cc1N1CCCC(N(C)S(C)(=O)=O)C1 (stereo not shown)

7.26
6.49
5.37
8.10
8.22
8.10
6.72

====

target: glucocorticoid receptor (GR) recombinant ligand binding domain (LBD) (Homo sapiens (Human)); assay: GR binding fluorescence polarisation (FP) assay; details: displacement of fluorescently tagged ligand
pIC50: −log10 of the molar value.
Okay, here is how we bin by pIC50: b0: < 7; b1: ≥ 7 and < 8; b2: ≥ 8

Which category does the recorded pIC50 put Cc1cc2c(cnn2-c2ccc(F)cc2)cc1N1CCN(S(C)(=O)=O)CC1=O in?
b0

Also CCCn1cc(S(=O)(=O)N2CC3CCN(c4cc5cnn(-c6ccc(F)cc6)c5cc4C)C3C2)cn1 (stereo not drawn) ?
b0

Also Cc1cc2c(cnn2-c2ccc(=O)n(C)c2)cc1C1(Cc2ccccc2)CCN(S(=O)(=O)c2cn(C)nn2)C1 (stereo not drawn) ?
b1

Also CCCn1cc(S(=O)(=O)NC2(C)CCN(c3cc4cnn(-c5ccc(F)cc5)c4cc3C)CC2)cn1 ?
b2

====

target: glucocorticoid receptor (GR) recombinant ligand binding domain (LBD) (Homo sapiens (Human), UniProt P04150); assay: GR binding fluorescence polarisation (FP) assay; settings: displacement of fluorescently tagged ligand
I'd be grateful if you could share measured IC50 for these entries.
Numbers only, in µM.

Check out these entries, answers already filled in.
| molecule | obs value |
| --- | --- |
| Cc1cc2c(cnn2-c2ccc(F)cc2)cc1N1CCN(C(=O)c2ccc(F)c(F)c2)C2(CC2)C1 [Example 101] | 0.118 |
| COc1cc2c(cnn2-c2ccc(F)cc2)cc1C1(Cc2ccccc2)CCN(S(=O)(=O)c2cnn(C)n2)C1 (centres unmarked) [Example 218] | 0.014 |
| Cc1cc2c(cnn2-c2ccc(F)cc2)cc1C1=CCN(S(C)(=O)=O)CC1 [Example 138] | 0.101 |
| Cc1cc2c(cnn2-c2ccc(=O)n(C)c2)cc1C1(Cc2ccccc2)CCN(C(=O)C2CC2C)C1 (centres unmarked) [Example 331] | 0.015 |
| CCCn1cc(S(=O)(=O)N(C)[C@H]2CCN(c3cc4cnn(-c5ccc(F)cc5)c4cc3C)C2)cn1 [Example 5] | 0.126 |

For each entry beneath this line, provide reported IC50.
1. Cc1cc2c(cnn2-c2ccc(=O)n(C)c2)cc1C1(Cc2ccc(F)cc2)CCN(S(=O)(=O)c2cnn(C)c2)C1 (centres unmarked) [Example 323]
2. COc1cc2c(cnn2-c2ccc(F)cc2)cc1C1(Cc2ccccc2)CCN(S(=O)(=O)c2cnn(C)c2)C1 (centres unmarked) [Example 161]

0.012
0.011

What does the record list as IC50 for CCCn1cc(S(=O)(=O)N2CCC(Cc3nccs3)(c3cc4cnn(-c5ccc(F)cc5)c4cc3C)C2)cn1 (centres unmarked) [Example 189] ?
0.011

FYI, the data here is from patent US11787780B2.
